- Target: ScMyo5
- Assay notes: SPOT peptide array binding signal intensity (averaged, normalized) (arbitrary units (background-subtracted, floor 0; scale differs between SH3 domains)); higher = stronger binding of the SH3 domain to the peptide
Listed below: SPOT peptide array binding signal intensity values for each entry.
Answer with a bare number; do not write a unit.

Record excerpt, results attached:
>>> result("RSLRKRPTSPSISGS")
3
>>> result("AVPPPPPPPPLPESL")
712

Could you now look at the following binder, please?
Qu. Requested field: SPOT peptide array binding signal intensity. Item: SSSSSPPPLPTRRDH
Ans. 166

Where do the numbers come from? From the supplement of paper PMC4466140.
